Where do these numbers come from? They come from patent US12083115B2.

assay: Study 1 Part 1: ascending single-dose PK in healthy men; assay type: in vivo, human; conditions: male, human, plasma, oral, 50 mg, 50 mg single dose, N = 6, read-out: AUClast, Mean (SD)
ENDPOINT: AUC(0-t) (ng·h/mL)
Give bare numbers, in ng·h/mL.

Challenge: Returns the measured AUC(0-t) for the input compound. Input: CC(C)(NC(=O)O[C@@H]1CN2CCC1CC2)c1csc(-c2ccc(F)cc2)n1 [Compound 2]
Response given: 6310

* * *

experiment: Study 1 Part 1: ascending single-dose PK in healthy men; assay type: in vivo, human; details: male, human, plasma, oral, 100 mg, 100 mg single dose, N = 6, read-out: t1/2, Mean (SD) (converted)
ENDPOINT: half-life (h)
Give bare numbers, in h.

Challenge: Returns the measured half-life for the input compound. Input: CC(C)(NC(=O)O[C@@H]1CN2CCC1CC2)c1csc(-c2ccc(F)cc2)n1 [Compound 2]
Response given: 27.8
